- test_system: human β-Secretase (Homo sapiens)
- Construct: soluble part of the human β-Secretase (AA 1-AA 460); Fc domain of IgG1 (C); made in house
- Sequence (P56817 22-460): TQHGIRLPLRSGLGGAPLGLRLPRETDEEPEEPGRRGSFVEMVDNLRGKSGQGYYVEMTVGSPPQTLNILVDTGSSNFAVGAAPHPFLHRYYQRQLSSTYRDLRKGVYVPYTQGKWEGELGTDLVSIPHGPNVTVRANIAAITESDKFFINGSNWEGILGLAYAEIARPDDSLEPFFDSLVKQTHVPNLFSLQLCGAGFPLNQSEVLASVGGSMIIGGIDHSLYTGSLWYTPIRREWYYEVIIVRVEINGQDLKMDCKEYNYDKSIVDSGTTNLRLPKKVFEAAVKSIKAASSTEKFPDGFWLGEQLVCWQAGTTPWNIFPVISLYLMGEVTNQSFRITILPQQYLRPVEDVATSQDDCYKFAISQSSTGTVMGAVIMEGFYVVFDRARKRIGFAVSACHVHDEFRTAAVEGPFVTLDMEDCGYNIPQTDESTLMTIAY
- assay_comment: TR-FRET assay
- Type: biochemical
- stated_conditions: sBACE-Fc, substrate (Europium)CEVNLDAEFK(Qsy7) 100 nM, pH4.5, unit not in table
- Method: The β-secretase enzyme used in the TR-FRET is prepared as follows: The cDNA for the soluble part of the human β-Secretase (AA 1-AA 460) was cloned using the ASP2-Fc10-1-IRES-GFP-neoK mammalian expression vector. The gene was fused to the Fc domain of IgG1 (affinity tag) and stably cloned into HEK 293 cells. […]
Measured log10(IC50) of individual entries
Scale: log10; quantity: IC50; unit before log: nM

Known log10(IC50) results, listed for orientation:
>  <molecule>
NC1=NC(c2ccncc2)(c2cccc(OC3CCC3)c2)c2cccnc21 (stereo not drawn)

>  <log10(IC50)>
3.90

$$$$
>  <molecule>
COc1cc(C2(c3cccc(OCCCF)c3)N=C(N)c3ncccc32)ccn1 (stereo not drawn)

>  <log10(IC50)>
3.43

$$$$
>  <molecule>
CC(C)COc1cccc(C2(c3ccc(OC(F)F)cc3)N=C(N)c3ncccc32)c1 (stereo not drawn)

>  <log10(IC50)>
2.18

$$$$

Problem: Note down log10(IC50) recorded for CC(C)COc1cccc(C2(c3ccc(OC(F)F)nc3)N=C(N)c3ncccc32)c1 (stereo not drawn) [Example 17, acetate]
Solution: 3.11

Problem: Note down log10(IC50) recorded for Cc1cc(C2(c3cccc(OCC(C)C)c3)N=C(N)c3ncccc32)cc(C)n1 (stereo not drawn) [Example 15, acetate]
Solution: 3.58
